# Method Description: Volume of distribution at steady state in Beagle dog at 0.2 to 0.5 mg/kg, iv
# Assay type: ADME, organism-based, Canis lupus familiaris
# Design: dose 0.2-0.5 mg/kg, route intravenous
# Protocol Conditions: in vivo, read-out: Vdss
For each entry below, report its Vd value.
Express your answer in L/kg, writing the number without its unit.

State its Vd: CCOCCn1nc(CC)c2nc(N3CCC(N)CC3)nc(Nc3cc(C)ccn3)c21
50.4

State its Vd: CCOCCn1nc(CC)c2nc(N3CCN(C)CC3)nc(Nc3cc(C)ccn3)c21
11.4

State its Vd: CCOCCn1nc(CC)c2nc(N3CCC(C(=O)O)CC3)nc(Nc3cc(C)ccn3)c21
3.8
